biological target: F508del (Homo sapiens, UniProt P13569, DEL508-508); construct: expressed in transfected cells; experiment: Protocol 1: membrane potential optical assay (FLIPR III, voltage sensing dye), identification of potentiator compounds; format: cell-based; settings: Table 3, compounds of Table 1
Sequence (P13569 with tags, fused parts or gaps DEL508-508): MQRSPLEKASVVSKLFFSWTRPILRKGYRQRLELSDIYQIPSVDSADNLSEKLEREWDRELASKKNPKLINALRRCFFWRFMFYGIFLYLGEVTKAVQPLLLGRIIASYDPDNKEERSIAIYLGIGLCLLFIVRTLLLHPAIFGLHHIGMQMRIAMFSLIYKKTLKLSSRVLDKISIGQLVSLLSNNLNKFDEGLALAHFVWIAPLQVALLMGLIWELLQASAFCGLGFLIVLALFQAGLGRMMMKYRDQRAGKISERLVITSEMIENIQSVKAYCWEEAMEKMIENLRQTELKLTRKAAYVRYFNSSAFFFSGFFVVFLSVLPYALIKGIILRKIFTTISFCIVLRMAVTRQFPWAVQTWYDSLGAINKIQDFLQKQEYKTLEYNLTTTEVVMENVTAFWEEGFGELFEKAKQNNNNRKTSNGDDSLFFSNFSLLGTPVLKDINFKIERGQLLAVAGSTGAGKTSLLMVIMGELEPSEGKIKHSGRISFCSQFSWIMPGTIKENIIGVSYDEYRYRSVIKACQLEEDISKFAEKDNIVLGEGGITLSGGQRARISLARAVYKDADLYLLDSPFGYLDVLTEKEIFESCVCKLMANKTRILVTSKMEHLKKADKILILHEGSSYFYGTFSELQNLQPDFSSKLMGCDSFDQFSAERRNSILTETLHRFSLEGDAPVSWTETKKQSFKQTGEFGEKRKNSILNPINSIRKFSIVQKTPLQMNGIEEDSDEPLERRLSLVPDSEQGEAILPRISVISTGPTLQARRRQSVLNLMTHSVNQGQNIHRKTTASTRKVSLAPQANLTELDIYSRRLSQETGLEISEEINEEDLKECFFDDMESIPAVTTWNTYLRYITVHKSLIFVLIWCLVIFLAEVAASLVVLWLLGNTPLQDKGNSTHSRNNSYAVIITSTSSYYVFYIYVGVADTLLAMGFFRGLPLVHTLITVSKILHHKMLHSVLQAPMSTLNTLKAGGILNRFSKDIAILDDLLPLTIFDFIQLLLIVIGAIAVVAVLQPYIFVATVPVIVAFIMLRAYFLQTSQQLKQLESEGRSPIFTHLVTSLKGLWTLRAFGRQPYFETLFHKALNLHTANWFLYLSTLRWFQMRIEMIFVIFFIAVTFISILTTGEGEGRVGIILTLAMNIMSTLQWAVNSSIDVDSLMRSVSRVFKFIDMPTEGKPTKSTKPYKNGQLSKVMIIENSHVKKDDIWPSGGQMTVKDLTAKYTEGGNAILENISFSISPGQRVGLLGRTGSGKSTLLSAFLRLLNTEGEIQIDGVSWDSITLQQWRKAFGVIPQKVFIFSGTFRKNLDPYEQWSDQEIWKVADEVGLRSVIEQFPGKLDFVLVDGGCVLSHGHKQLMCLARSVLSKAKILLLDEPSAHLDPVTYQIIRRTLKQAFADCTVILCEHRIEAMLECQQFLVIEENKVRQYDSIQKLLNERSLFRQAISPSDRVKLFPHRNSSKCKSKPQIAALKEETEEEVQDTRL
Readout: EC30

Worked cases, answers included:
Compound: CC(C)COc1cc(F)cc(-c2ccc(C(=O)NS(=O)(=O)c3cccc(N)n3)c(-n3nc(C(C)C)cc3C(C)C)n2)c1
EC30: +++ (“+++” means <3 uM)
--
Compound: CC(C)COc1cc(F)cc(-c2ccc(C(=O)NS(=O)(=O)c3cccc(N)n3)c(OC3CCCC3)n2)c1
EC30: +++ (“+++” means <3 uM)
--
Compound: C[C@@H]1CN(c2nc(C3CCCCO3)ccc2C(=O)NS(=O)(=O)c2ccccc2)C(C)(C)C1 (stereo partly shown)
EC30: +++ (“+++” means <3 uM)
--
Compound: CC1CN(c2ncccc2C(=O)NS(=O)(=O)c2cccc(N3CCCC4CCCCC43)n2)C(C)(C)C1 (stereo not shown)
EC30: +++ (“+++” means <3 uM)
--
Compound: CC(C)COc1cc(F)cc(-c2ccc(C(=O)NS(=O)(=O)c3cccc(N)n3)c(NCC3(CC(C)(C)O)CC3)n2)c1
EC30: +++ (“+++” means <3 uM)
--
Compound: Cc1cc(C)c(Oc2nc(-c3cccc(Cl)c3)ccc2C(=O)NS(=O)(=O)c2cccc(N)n2)c(C)c1
EC30: +++ (“+++” means <3 uM)

Now consider a different compound.
Tested on F508del (Homo sapiens, UniProt P13569, DEL508-508): Cc1cc(C)c(Oc2nc(-c3ccccc3Cl)ccc2C(=O)NS(=O)(=O)c2ccc[nH]c2=O)c(C)c1 . Observed EC30: +++ (“+++” means <3 uM)
